# System: COLO 205
# Measurement Description: NCI tumour cell line growth inhibition, 48 h
Calls of active or inactive are those of the source. No stated cut-off is given here; in the data, active = GI50 up to about 1.1 µM and inactive = higher.
Outcome Measure: GI50

>  <Query Smiles>
OB(O)c1ccccc1C#Cc1ccccc1B(O)O

>  <GI50>
16.2 µM (inactive)

$$$$
>  <Query Smiles>
CC(C)(C)c1c(C(C)(C)C)c(=O)c1=O

>  <GI50>
> 100 µM (inactive)

$$$$
>  <Query Smiles>
Oc1c(N2CCCCC2)cc(-c2cc(N3CCCCC3)c(O)c3ccccc23)c2ccccc12

>  <GI50>
26.2 µM (inactive)

$$$$
>  <Query Smiles>
O=C1C(Cl)=C(N2CCN(c3ccccn3)CC2)C(=O)c2c(O)ccc(O)c21

>  <GI50>
1.43 µM (inactive)

$$$$
>  <Query Smiles>
CCOc1cc(NC(C)=O)ccc1C(=O)N/N=C/c1ccco1

>  <GI50>
44.6 µM (inactive)

$$$$

Here is another molecule to look at.
Recorded GI50 for CS(=O)(=O)N(CCC#N)c1ccc(/C=N/NC(=O)CC(=O)Nc2cccc(Cl)c2)cc1 with COLO 205, please?
> 100 µM (inactive)

###

# Tested on: IGROV-1
# Measurement Description: NCI tumour cell line growth inhibition, 48 h
Activity calls are given as the source filed them. No stated cut-off is given here; in the data, active = GI50 up to about 1.1 µM and inactive = higher.
Hi there, use one of these labels in your reply, thanks! active, inactive

Worked examples follow.
>  <Molecule>
Clc1ccc(-c2cn3c(nc4ccccc43)c(/C=C/c3cccs3)n2)cc1

>  <Tgt>
IGROV-1

>  <Assigned Class>
inactive

$$$$
>  <Molecule>
OB(O)c1ccccc1C#Cc1ccccc1B(O)O

>  <Tgt>
IGROV-1

>  <Assigned Class>
inactive

$$$$

Test call for this molecule, please: CN1C/C(=C\c2ccco2)c2nc(N)nc(-c3ccco3)c2C1
inactive

Test call for this molecule, please: CC(=O)/N=S(/NC(=O)c1ccc(C)cc1)C(Cl)(Cl)Cl (stereo unspecified)
inactive

###

# Test system: A549
# Measurement Description: NCI tumour cell line growth inhibition, 48 h
Active and inactive are the calls of the source. Rule as the data show it: active = GI50 up to about 1.1 µM and inactive = higher.
Hi there, use one of these labels in your reply, thanks! active, inactive

Worked examples follow.
>  <Molecule>
O=C(O)CCCc1ccc(N(CCCl)CCCl)cc1

>  <Assigned Class>
inactive

$$$$
>  <Molecule>
CC1=C2C(=CO[C@H](C)[C@H]2C)C(O)=C(C(=O)O)C1=O

>  <Assigned Class>
inactive

$$$$
>  <Molecule>
COC(=O)C1CN=CN1CCc1ccccc1 (stereo not given)

>  <Assigned Class>
inactive

$$$$
>  <Molecule>
COc1ccc2c(c1)CCN1C3=C(CCC3)C(=O)C[C@@H]21

>  <Assigned Class>
inactive

$$$$
>  <Molecule>
O=C1CC(Nc2ccccc2)c2c(Cl)sc(Cl)c21 (stereo not given)

>  <Assigned Class>
inactive

$$$$
>  <Molecule>
CCOC(=O)Oc1cc2c(c(OC)c1OC)-c1ccc(OC)c(=O)cc1C(NC(C)=O)CC2 (stereo not given)

>  <Assigned Class>
active

$$$$
>  <Molecule>
COc1ccc(C2Oc3cc(OC)c(O)c(C)c3[C@H]2C)cc1 (stereo not given in full)

>  <Assigned Class>
inactive

$$$$
>  <Molecule>
O=[N+]([O-])c1ccc(N2N=C(c3ccc4ccccc4c3O)CC2c2ccc(Cl)cc2)c([N+](=O)[O-])c1 (stereo not given)

>  <Assigned Class>
inactive

$$$$
>  <Molecule>
O=C(CCc1n[nH]c(=S)o1)Nc1cc(Cl)c(Cl)cc1Cl

>  <Assigned Class>
inactive

$$$$

// next entry
Test call for this molecule, please: FC(F)(F)c1ccc2c(c1)nc(Cc1ccccc1)n2C[C@@H]1CCCN2CCCCC12 (stereo not given in full)
inactive
